Kindly supply the reported normalized growth values for the records listed here.
- EXPERIMENT NOTES: chemical genetic growth profiling, strain panel (AID 1159580);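 further: tested at 20 µM; growth read once vehicle control cultures reached saturation at 30 °C; 1 = growth at the plate median or of vehicle wells; lower values mean less growth of the strain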
- RUN PARAMETERS: S. cerevisiae deletion strains, growth OD, locus YLR113W, strain HOG1, stronger effect = lower value
The whole screen tested about 5,500 compounds, of which about 2,000 (36%) were called active. About 18% were inconclusive and are not listed. This is one part of the list.
Numbers only.

Some solved cases for reference:
NCCCN | 1.05
C/C(=N/NC(N)=S)c1csc(-c2ccccc2)n1 | 0.964

Go through the list and state normalized growth for each entry.
1. COP(N)(=O)SC (stereo not drawn)
2. CC(C)(C)NCC(O)COc1cccc2c1CCCC2=O (stereo not drawn)

Result:
[0.963, 1.01]

====

- EXPERIMENT NOTES: chemical genetic growth profiling, strain panel (AID 1159580)
- RUN PARAMETERS: S. cerevisiae deletion strains, growth OD, locus YLR058C, strain SHM2 (second series), stronger effect = lower value
Among all 5,500 compounds or so, about 2,000 (36%) were called active. Another 18% or so got no clear call; they are omitted. The list shows a part of the results.
Kindly supply the reported normalized growth values for the records listed here.
Answers are plain numbers.

Some solved cases for reference:
c1ccc(-c2ncc3ccccn23)cc1 | 0.991
CCn1nc(C)cc1C(=O)O | 1.02

Go through the list and state normalized growth for each entry.
1. CCN(CCS(=O)(=O)c1ccc(C)cc1)S(=O)(=O)c1ccccc1
2. CCOC(=O)/C(C#N)=C/Nc1ccc2c(c1)OCO2
3. CCSc1ncccc1C(=O)N[C@@H](CCSC)C(=O)OC
4. COC(OC)c1ccc(C#N)c(=S)[nH]1
5. CN1c2ccccc2C(=O)/C(=N/Nc2ccccc2F)S1(=O)=O
6. CCOC(=O)c1nnc2cc(C)nn2c1C

Result:
0.998
0.971
1.01
1.01
1.02
1.01

====

- EXPERIMENT NOTES: chemical genetic growth profiling, strain panel (AID 1159580)
- RUN PARAMETERS: S. cerevisiae deletion strains, growth OD, locus YLR258W, strain gsy2, stronger effect = lower value
The campaign covered roughly 5,500 compounds. About 2,000 (36%) were called active. About 18% were inconclusive and are not listed. This is one part of the list.
Kindly supply the reported normalized growth values for the records listed here.
Answers are plain numbers.

Some solved cases for reference:
NC(=O)c1ccc([N+](=O)[O-])cc1Cl | 0.956
CCC(=O)NCC[C@@H]1CCc2ccc3c(c21)CCO3 | 1.02
CC1(C)Oc2ccc3ccc(=O)oc3c2CC1O (stereo unspecified) | 0.971

Go through the list and state normalized growth for each entry.
1. COC1CC(O[C@H]2CC[C@]3(C=O)C4CC[C@]5(C)C(C6=CC(=O)OC6)CC[C@]5(O)C4CC[C@]3(O)C2)OC(C)C1O (stereo partly specified)
2. COc1ccc(-c2cc(=O)c3c(O)cc(O)c(-c4cc(-c5cc(=O)c6c(O)cc(O)cc6o5)ccc4OC)c3o2)cc1
3. C/C=C(\C)C(=O)O[C@@H]1c2c(ccc3ccc(=O)oc23)OC(C)(C)[C@@H]1OC(C)=O

Result:
0.962
1.01
0.997

Go through the list and state normalized growth for each entry.
1. NC(=O)c1cc([N+](=O)[O-])cc([N+](=O)[O-])c1
2. Cc1c(OCC(F)(F)F)ccnc1CS(=O)c1nc2ccccc2[nH]1 (stereo unspecified)
3. CC(=O)O[C@@H]1c2c(ccc3ccc(=O)oc23)OC(C)(C)[C@@H]1OC(=O)CC(C)C
4. C[C@@H](CO)NC(=O)C1C=C2c3cccc4[nH]cc(c34)C[C@H]2N(C)C1 (stereo partly specified)

Result:
[1, 1.02, 1.01, 1.01]

====

- EXPERIMENT NOTES: chemical genetic growth profiling, strain panel (AID 1159580)
- RUN PARAMETERS: S. cerevisiae deletion strains, growth OD, locus YJR066W, strain TOR1, stronger effect = lower value
Hit rate of the full screen: of about 5,500 compounds, about 2,000 (36%) were called active. Not shown: some 18% with an inconclusive outcome. The list shows a part of the results.
Kindly supply the reported normalized growth values for the records listed here.
Answers are plain numbers.

N/C(=N/OC(=O)Nc1cccc(C(F)(F)F)c1)c1ccc(OC(F)(F)F)cc1 | 0.555
CC(=O)Oc1ccccc1C(=O)Oc1ccccc1C(=O)O | 0.905
N#Cc1nccnc1N1CCN(C(=O)Nc2cc(Cl)cc(Cl)c2)CC1 | 0.891
COC(=O)CC1C(C)(C)C(OC(C)=O)[C@@H]2[C@@H](OC(C)=O)[C@]34O[C@@]2(O)[C@]1(C)C3CC[C@]1(C)C4=CC(=O)O[C@H]1c1ccoc1 (stereo not given in full) | 0.963

Go through the list and state normalized growth for each entry.
1. CN(C)CC[C@H](c1ccc(Cl)cc1)c1ccccn1
2. C/C=C(\C)C(=O)O[C@@H]1c2c(ccc3ccc(=O)oc23)OC(C)(C)[C@@H]1OC(C)=O
3. CCCc1nn(C)c2c(=O)[nH]c(-c3cc(S(=O)(=O)N4CCN(C)CC4)ccc3OCC)nc12
4. CC1(C)[C@@H]2CC[C@@]1(C)C(=O)C2
5. O=C(Oc1ccccc1C(=O)O)c1ccccc1O

Result:
[0.993, 0.958, 0.981, 0.973, 0.937]

Task: Please look at this compound and report its normalized growth: "O=C1OC(c2ccccc2)=C/C1=C/c1ccccc1"
Result: 0.461

====

Kindly supply the reported normalized growth values for the records listed here.
- EXPERIMENT NOTES: chemical genetic growth profiling, strain panel (AID 1159580);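 further: tested at 20 µM; growth read once vehicle control cultures reached saturation at 30 °C; 1 = growth at the plate median or of vehicle wells; lower values mean less growth of the strain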
- RUN PARAMETERS: S. cerevisiae deletion strains, growth OD, locus YCL069W, strain vba3, stronger effect = lower value
Out of some 5,500 compounds screened, about 2,000 (36%) were called active. Roughly 18% stayed inconclusive and do not appear here. Some of the results follow.
Give bare numbers.

Some solved cases for reference:
COC(=O)[C@H]1[C@H]2C[C@H]3c4[nH]c5cc(OC)ccc5c4CCN3C[C@H]2C[C@@H](OC(=O)c2cc(OC)c(OC)c(OC)c2)[C@@H]1OC | 1.01
CC1=CC(=O)C(C(C)C)=CC1=O | 0.993
CN[C@H]1CC[C@@H](c2ccc(Cl)c(Cl)c2)c2ccccc21 | 0.968

Now look at this one.
Task: Please look at this molecule and report its normalized growth: C[C@H]1[C@H](C)CC[C@]2(C(=O)O)CC[C@]3(C)C(=CCC4[C@@]5(C)C[C@@H](O)[C@H](O)[C@@](C)(CO)C5CC[C@]43C)[C@H]12 (some centres undefined)
Result: 1.03

====

- EXPERIMENT NOTES: chemical genetic growth profiling, strain panel (AID 1159580);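 further: tested at 20 µM; growth read once vehicle control cultures reached saturation at 30 °C; 1 = growth at the plate median or of vehicle wells; lower values mean less growth of the strain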
- RUN PARAMETERS: S. cerevisiae deletion strains, growth OD, locus YOR231W, strain MKK1, stronger effect = lower value
Hit rate of the full screen: of about 5,500 compounds, about 2,000 (36%) were called active. Another 18% or so got no clear call; they are omitted. Some of the results follow.
Kindly supply the reported normalized growth values for the records listed here.
One number for each entry.

O=C(O)CCc1nc(-c2ccccc2)c(-c2ccccc2)o1 | 0.942
CC(=O)Oc1ccccc1C(=O)Oc1ccccc1C(=O)O | 0.992
CC(C)c1cccc(C(C)C)c1O | 0.914
Cc1cc(-c2onc(C)c2C(=O)Sc2ccccc2)no1 | 0.75
O=C(Oc1ccccc1C(=O)O)c1ccccc1O | 0.959

Go through the list and state normalized growth for each entry.
1. C[C@H]1[C@H](C)CC[C@]2(C(=O)O)CC[C@]3(C)C(=CCC4[C@@]5(C)C[C@@H](O)[C@H](O)[C@@](C)(CO)C5CC[C@]43C)[C@H]12 (stereo partly specified)
2. CSc1nc(NC(C)C)nc(NC(C)C)n1
3. O=C(CCCN1CCC(O)(c2ccc(Cl)cc2)CC1)c1ccc(F)cc1
4. NC(=O)C1(N2CCCCC2)CCN(CCCC(=O)c2ccc(F)cc2)CC1
5. CC(C)(C)NCC(O)COc1cccc2c1C[C@H](O)[C@H](O)C2 (stereo partly specified)
6. O=C(Oc1cccc2cccnc12)c1ccccc1

Result:
1: 0.973; 2: 1.03; 3: 0.991; 4: 1.01; 5: 1.06; 6: 0.946

====

- EXPERIMENT NOTES: chemical genetic growth profiling, strain panel (AID 1159580);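 further: tested at 20 µM; growth read once vehicle control cultures reached saturation at 30 °C; 1 = growth at the plate median or of vehicle wells; lower values mean less growth of the strain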
- RUN PARAMETERS: S. cerevisiae deletion strains, growth OD, locus YDR159W, strain sac3, stronger effect = lower value
The whole screen tested about 5,500 compounds, of which about 2,000 (36%) were called active. Another 18% or so got no clear call; they are omitted. The list shows a part of the results.
Kindly supply the reported normalized growth values for the records listed here.
Numbers only.

CC(=O)OCC(=O)[C@@]1(O)CCC2C3C[C@H](C)C4=CC(=O)C=CC4(C)C3[C@@H](O)CC21C (stereo partly drawn) | 0.995

Go through the list and state normalized growth for each entry.
1. NCCCC(O)(P(=O)(O)O)P(=O)(O)O
2. COc1ccc(-c2cc(=O)c3c(O)cc(O)cc3o2)cc1
3. CC(C)Nc1nc(Cl)nc(NC(C)C)n1
4. CO[C@@H]1[C@@H](OC(N)=O)[C@@H](O)[C@H](Oc2ccc3c(O)c(NC(=O)c4ccc(O)c(CC=C(C)C)c4)c(=O)oc3c2C)OC1(C)C
5. NC[C@H]1O[C@H](OC2[C@@H](N)C[C@@H](N)[C@H](O[C@H]3O[C@H](CO)[C@@H](O)[C@H](N)[C@H]3O)[C@H]2O)[C@H](O)[C@@H](O)[C@@H]1O (stereo partly drawn)

Result:
1: 1; 2: 0.996; 3: 1.03; 4: 0.98; 5: 1

Go through the list and state normalized growth for each entry.
1. COc1ccc(-c2cc(=O)c3c(O)c(OC)c(O[C@H]4O[C@H](CO[C@@H]5O[C@@H](C)[C@H](O)[C@@H](O)[C@H]5O)[C@@H](O)[C@H](O)[C@H]4O)cc3o2)cc1
2. COc1nc(NC(C)C)nc(NC(C)C)n1

Result:
[0.995, 1.07]

Attribution: PubChem BioAssay AID1159580
